Target: human recombinant DGK ξ (Homo sapiens (Human), UniProt Q13574)
Sequence (Q13574 whole entry): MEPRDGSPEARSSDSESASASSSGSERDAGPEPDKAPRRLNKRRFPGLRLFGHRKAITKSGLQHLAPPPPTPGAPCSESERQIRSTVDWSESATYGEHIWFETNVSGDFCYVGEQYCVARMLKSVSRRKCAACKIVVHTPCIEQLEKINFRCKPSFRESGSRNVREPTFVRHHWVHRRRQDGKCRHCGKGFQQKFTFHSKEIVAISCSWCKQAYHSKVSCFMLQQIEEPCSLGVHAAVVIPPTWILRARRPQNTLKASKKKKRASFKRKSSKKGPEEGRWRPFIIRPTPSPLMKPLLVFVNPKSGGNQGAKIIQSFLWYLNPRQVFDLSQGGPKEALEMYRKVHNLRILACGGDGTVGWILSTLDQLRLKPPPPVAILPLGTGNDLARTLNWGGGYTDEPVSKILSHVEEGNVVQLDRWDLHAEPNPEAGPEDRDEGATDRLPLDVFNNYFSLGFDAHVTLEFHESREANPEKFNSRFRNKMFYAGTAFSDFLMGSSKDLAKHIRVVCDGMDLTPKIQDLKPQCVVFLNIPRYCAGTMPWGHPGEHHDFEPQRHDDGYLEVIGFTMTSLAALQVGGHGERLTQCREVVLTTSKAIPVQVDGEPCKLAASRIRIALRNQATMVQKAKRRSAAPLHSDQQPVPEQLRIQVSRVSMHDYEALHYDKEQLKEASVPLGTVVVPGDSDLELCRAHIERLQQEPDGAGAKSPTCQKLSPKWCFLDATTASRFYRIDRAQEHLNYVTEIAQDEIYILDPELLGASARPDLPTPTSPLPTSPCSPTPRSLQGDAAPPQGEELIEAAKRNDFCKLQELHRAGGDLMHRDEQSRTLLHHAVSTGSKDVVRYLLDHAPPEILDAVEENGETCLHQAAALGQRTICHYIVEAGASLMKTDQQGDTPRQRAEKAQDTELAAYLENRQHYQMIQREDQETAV
Assay: Evaluation of DGK ξ inhibitory effect (ADP-Glo Kinase Assay)
Method: Test Example 1: Evaluation of DGK ξ Inhibitory Effect The inhibitory effect of a test compound on human recombinant DGK ξ (Carna Biosciences, Inc., 12-410-20N) was examined by the following method in which detection is performed with ADP-Glo™ Kinase Assay (Promega Corporation). […]
Decide using IC50 alone. Strictly below 50 nM: Criterion met. Equal to or above 50 nM: Criterion not met.

                                   compound     assigned_class
0  NC[C@@H]1CCCN(c2c(NC(=O)c3csc(-c4ccnnc4)n3)ccc(N3CCCC3)c2C(F)(F)F)C1 [Example 47]  Criterion not met
1  CNC[C@@H]1CN(c2c(NC(=O)c3csc(-c4ccnnc4)n3)ccc(Oc3ccccc3)c2C(F)(F)F)CCO1 [Example 26]      Criterion met
2  NC[C@@H]1CCCN(c2c(NC(=O)c3csc(-c4ccnnc4)n3)ccc(C(=O)c3ccccc3)c2C(F)(F)F)C1 [Example 70]      Criterion met
3  O=C(Nc1ccc(OC2CC2)c(C(F)(F)F)c1C1=CCN(Cc2cc[nH]n2)CC1)c1csc(-c2ccnnc2)n1 [Example 3]      Criterion met
4  N#Cc1ccccc1Oc1ccc(NC(=O)c2csc(-c3ccnnc3)n2)c(N2CCC[C@@H](CN)C2)c1C(F)(F)F [Example 38]      Criterion met
5  CN(C)CC[C@@H]1CN(c2c(NC(=O)c3csc(-c4ccnnc4)n3)ccc(Oc3ccccc3)c2C(F)(F)F)CCO1 [Example 58]  Criterion not met

Threshold test, IC50 < 50 nM: CNC[C@@H]1CCCN(c2c(NC(=O)c3csc(-c4ccnnc4)n3)ccc(Oc3ccccc3)c2C(F)(F)F)C1 [Example 49]
Criterion met

* * *

Assign pIC50 to each entry below.
target: human recombinant DGK ξ (Homo sapiens (Human), UniProt Q13574); assay: Evaluation of DGK ξ inhibitory effect (ADP-Glo Kinase Assay); type: biochemical
Numbers only, as −log10 of the molar value.

>>> print(df.to_string())
                           substance_smiles  meas_value
0  N[C@@H]1CCN2CCN(c3c(NC(=O)c4csc(-c5ccnnc5)n4)ccc(Oc4ccccc4)c3C(F)(F)F)C[C@@H]12        8.30
1  NCC[C@@H]1CN(c2c(NC(=O)c3csc(-c4ccnnc4)n3)ccc(Oc3ccccc3)c2C(F)(F)F)CCO1        7.41
2  Cc1ccccc1Oc1ccc(NC(=O)c2csc(-c3ccnnc3)n2)c(N2CCC[C@@H](CN)C2)c1C(F)(F)F        8.22

Batch: pIC50 for all items listed.
1. CNC[C@H]1CN(c2c(NC(=O)c3csc(-c4ccnnc4)n3)ccc(Oc3ccccc3)c2C(F)(F)F)CCN1C
2. CNC[C@@H]1CCCN(c2c(NC(=O)c3csc(-c4ccnnc4)n3)ccc(Oc3ccc(F)cc3)c2C(F)(F)F)C1
3. O=C(Nc1cc(F)c(OC2CC2)c(F)c1C1=CCN(Cc2cc[nH]n2)CC1)c1csc(-c2ccnnc2)n1
4. CN(C)C[C@@H]1CCCN(c2c(NC(=O)c3csc(-c4ccnnc4)n3)ccc(Oc3ccccc3)c2C(F)(F)F)C1

[8.52, 7.44, 7.32, 7.00]

* * *

target: human recombinant DGK ξ (Homo sapiens (Human)); experiment: Evaluation of DGK ξ inhibitory effect (ADP-Glo Kinase Assay)
Counter-ions that a name gives are not always drawn.
attribute_measured: log10(IC50) (log10 of the value in nM)
// stored as log10 of IC50 expressed in nM

                                   molecule                               test_target  meas_value
0  NC[C@@H]1CCCN(c2c(NC(=O)c3csc(-c4ccnnc4)n3)ccc(OC3CCCC3)c2C(F)(F)F)C1  human recombinant DGK ξ (Homo sapiens (Human))        0.85
1  NC[C@@H]1CCCN(c2c(NC(=O)c3csc(-c4ccnnc4)n3)ccc(Oc3cccc(Cl)c3)c2C(F)(F)F)C1  human recombinant DGK ξ (Homo sapiens (Human))        1.70
2  CNCC1CCCN(c2c(NC(=O)c3csc(-c4ccnnc4)n3)ccc(Oc3ccccc3)c2C(F)(F)F)C1 (stereo not shown)  human recombinant DGK ξ (Homo sapiens (Human))        1.48
3  O=C(Nc1ccc(Oc2ccccc2)c(C(F)(F)F)c1C1=CCN(Cc2cc[nH]n2)CC1)c1csc(-c2ccnnc2)n1  human recombinant DGK ξ (Homo sapiens (Human))        1.72
4  NC[C@@H]1CCCN(c2c(NC(=O)c3csc(-c4ccnnc4)n3)ccc(Oc3ccccc3)c2C(F)(F)F)C1 [Example 9]  human recombinant DGK ξ (Homo sapiens (Human))        0.90

Batch: log10(IC50) for all items listed.
1. COCCN1CCC2(CC1)CN(c1c(NC(=O)c3csc(-c4ccnnc4)n3)ccc(Oc3ccccc3)c1C(F)(F)F)CCO2 [Example 59, dihydrochloride]
2. COCCN1CCC2(CCCN(c3c(NC(=O)c4csc(-c5ccnnc5)n4)ccc(Oc4ccccc4)c3C(F)(F)F)C2)CC1

0.30
0.48

// provenance: patent US12227517B2
